List of solvation free energy, 298 K values.
ASSAY PROCEDURE: solvent given as SMILES
REPORTED CONDITIONS: in CCO
Write the answer as a number in kcal/mol, unit excluded.

The following compounds have reported results that may help.
* c1ccc2cc3ccccc3cc2c1 | -10.4
* O=C(Oc1ccccc1)Oc1ccccc1 | -11.6
* c1cc2ccc3cccc4ccc(c1)c2c34 | -11.6
* [N]=O | 0.81
* CCCCCCCCCCCCCCCC | -8.9

Write down solvation free energy, 298 K measured for item "CCCCC" -2.51

Write down solvation free energy, 298 K measured for item "CCCCCCCC" -4.3

Write down solvation free energy, 298 K measured for item "C[N+](=O)[O-]" -4.26

Write down solvation free energy, 298 K measured for item "CC(C)CCC(C)C" -3.92

Write down solvation free energy, 298 K measured for item "CC(C)=O" -3.78

----------
ASSAY PROCEDURE: solvent given as SMILES
REPORTED CONDITIONS: in OCCCCCO
OBSERVABLE: solvation free energy, 298 K (kcal/mol)
Write the answer as a number in kcal/mol, unit excluded.

The following molecules have reported results that may help.
• CCc1ccccc1 = -4.4
• CCCCCC = -2.03
• CCCCCCCC = -3.06

Write down solvation free energy, 298 K measured for item "CCCCCCC" -2.53

----------
List of solvation free energy, 298 K values.
ASSAY PROCEDURE: solvent given as SMILES
REPORTED CONDITIONS: in CCCCCO

• c1ccc(-c2ccccc2)cc1 = -8.34 kcal/mol
• O=c1[nH]c2ccccc2n1C1CCN(CCCC(c2ccc(F)cc2)c2ccc(F)cc2)CC1 = -26.8 kcal/mol
• c1ccc2cc3ccccc3cc2c1 = -10.2 kcal/mol

Write down solvation free energy, 298 K measured for item "Cc1cc(C)c(C)cc1C" -6.71 kcal/mol

Write down solvation free energy, 298 K measured for item "CC(F)F" -1.28 kcal/mol

Write down solvation free energy, 298 K measured for item "c1cc2ccc3cccc4ccc(c1)c2c34" -11.7 kcal/mol

Write down solvation free energy, 298 K measured for item "CCCCC" -2.65 kcal/mol

Write down solvation free energy, 298 K measured for item "CCCCCCCC" -4.62 kcal/mol

Write down solvation free energy, 298 K measured for item "Nc1ccc(C(=O)O)cc1" -13.9 kcal/mol

Write down solvation free energy, 298 K measured for item "FC(F)(F)F" 1.16 kcal/mol

Write down solvation free energy, 298 K measured for item "CCOCC" -3.12 kcal/mol

----------
ASSAY PROCEDURE: solvent given as SMILES
REPORTED CONDITIONS: in C=CCCCCCCCCCCCCCC
# if measured solvation free energy, 298 K < -4 kcal/mol: Condition met  # else: Condition not met

• CCC(C)Cl (centres undefined) = Condition not met
• CC(C)C(C)C = Condition not met
• CCCCCCC = Condition met
• CCCCCC = Condition not met
• CC(N)=O = Condition met
• CCc1ccccc1 = Condition met

Field: below-cutoff. Rule: recorded solvation free energy, 298 K strictly less than -4 kcal/mol. Subject: "CCI" Condition not met

Field: below-cutoff. Rule: recorded solvation free energy, 298 K strictly less than -4 kcal/mol. Subject: "CC=C(C)C" Condition not met

Field: below-cutoff. Rule: recorded solvation free energy, 298 K strictly less than -4 kcal/mol. Subject: "CCOCC" Condition not met

Field: below-cutoff. Rule: recorded solvation free energy, 298 K strictly less than -4 kcal/mol. Subject: "Cl" Condition not met

Field: below-cutoff. Rule: recorded solvation free energy, 298 K strictly less than -4 kcal/mol. Subject: "CCCCC" Condition not met

Field: below-cutoff. Rule: recorded solvation free energy, 298 K strictly less than -4 kcal/mol. Subject: "O=C(O)c1cccc2ccccc12" Condition met

Field: below-cutoff. Rule: recorded solvation free energy, 298 K strictly less than -4 kcal/mol. Subject: "CCCCl" Condition not met

Field: below-cutoff. Rule: recorded solvation free energy, 298 K strictly less than -4 kcal/mol. Subject: "CCC(C)CC" Condition not met

Field: below-cutoff. Rule: recorded solvation free energy, 298 K strictly less than -4 kcal/mol. Subject: "Nc1ncnc2nc[nH]c12" Condition met
